System: Trypanosoma cruzi
Experiment: Antiparasitic activity against bloodstream form of Trypanosoma cruzi Y strain trypomastigotes infected in Balb/c mouse peritoneal macrophage incubated for 6 hrs followed by replacement of fresh medium measured after 3 days by Giemsa-staining based optical microscopic analysis
Format: functional, organism-based
Reported Property: pIC50
When answering, recall that pIC50 equals minus log10 of the concentration in mol/L, and write that number alone.

Known results for compounds:
INSERT INTO assay_data (smiles_entry, measured_number) VALUES
  ('O=[N+]([O-])c1ccc(-c2csc(N/N=C/CSc3ccccc3)n2)cc1', 4.72),
  ('Cc1sc(N/N=C/CSc2ccccc2)nc1-c1ccc(Br)cc1', 4.99),
  ('Clc1ccc(-c2csc(N/N=C/CSc3ccccc3)n2)cc1', 5.10);

Now for another entry.
Determine its reported pIC50: Cc1ccc(-c2csc(N/N=C/CSc3ccccc3)n2)cc1
4.73
